# EXPERIMENT NOTES: viability loss with TRAIL in NB7+C8 cells, primary screen, TRAIL sensitizer project, cell-based, ATPlite luminescence (AID 624354)
# CONDITION LABEL: at 10 µM
The whole screen tested about 360,000 compounds, of which about 3,800 (1.1%) were called active.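 How the source made its calls: active means compounds causing at least 50% loss of cell viability in the single-dose screen, relative to plate controls; inactive means the rest.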 This excerpt belongs to a sample that is enriched for actives.
Tick one outcome: active, inactive

COCCNC(=O)CN(C(=O)CCC(=O)Nc1cc(C)on1)c1ccc(C)cc1C : inactive
COc1ccc(OC)c(NC(=O)c2ccc3c(c2)C(=O)N(c2ccc(OC(C)=O)cc2)C3=O)c1 : inactive
Brc1ccc(-c2csc(N/N=C/c3cccnc3)n2)cc1 : inactive
COc1ccc(CCNC(=O)c2c(C)nn(-c3ccccc3)c2Cl)cc1 : inactive
Cc1noc(C)c1COC(=O)COc1ccc(-c2ccccc2)cc1 : inactive
O=C(NC(Cc1ccc(O)cc1)C(=O)O)/C(=C/c1ccccc1)NC(=O)c1ccccc1 (stereo not drawn) : inactive
O=C(Nc1ccc2c(c1)OCCO2)C(C1CC1)N1CCC(Cc2ccccc2)CC1 (stereo not drawn) : inactive
O=C(Oc1ccc(-c2nc(-c3ccccn3)no2)cc1)c1ccccc1 : active

Name the outcome recorded for Cc1c(C(=O)NCCN(C)C)oc2ccc(S(=O)(=O)N3CCCC3)cc12 in the assay.
inactive
